The measurements presented in this section are drawn from PubChem BioAssay (NCI).

Recorded TGI for the following molecules
tested on: LOX IMVI melanoma; assay: NCI tumour cell line growth inhibition, 48 h

Illustrative cases are given below, each with its answer.
Lookup: Complete the entry with TGI for CCCCCCCCc1cc(O)ccc1O
Found: 25.8 µM

Lookup: Report TGI for Cc1ccc(C)c(NC(=O)C(=O)Nn2c(=S)[nH]c3ccccc3c2=O)c1
Found: > 100 µM

Lookup: State, in one line, measured TGI of Cc1nccn1S(=O)(=O)c1ccc(Cl)cc1
Found: > 100 µM

---
Lookup: Using the record for COC(=O)c1cc(C)[nH]c2c(C)cc3nc4ccccc4c3c12 , state its measured TGI.
Found: 32.2 µM

Lookup: Tell me TGI reported for Cc1cc(S(=O)(=O)Nc2n[nH]c(Nc3ccccc3)n2)c(SSc2cc(Cl)c(C)cc2S(=O)(=O)Nc2n[nH]c(Nc3ccccc3)n2)cc1Cl
Found: > 100 µM

Lookup: Complete the entry with TGI for CCOC(=O)N(O)c1ccc(/C=C/c2ccccc2)cc1
Found: 20.6 µM

Lookup: Supply recorded TGI for CCOC(=O)CN1C(=O)C(=O)N(c2ccc(OC)c3ccccc23)C1=O here.
Found: > 100 µM

Lookup: State its TGI for this molecule: Cc1ccc(S(=O)(=O)NC(=O)NC(CC(=O)O)C(=O)O)cc1 (configuration not stated)
Found: > 100 µM

Lookup: Input Cn1cccc1-c1cc(-c2ccccc2)nc(N)c1C#N , output reported TGI.
Found: > 100 µM

Lookup: Please list TGI recorded for the molecule COC(=O)C#CC(N)=O
Found: > 50.4 µM

Lookup: Name the recorded TGI of the molecule listed here: Cc1cn2cc(-c3ccc4c(c3)CC(=O)N4)nc2s1
Found: > 100 µM

Lookup: Annotate the molecule COc1ccc(C2=NN(c3nsc4ccccc34)C(=O)CC2)cc1 with its measured TGI.
Found: > 100 µM

====

# TGI per entry
system: SK-MEL-5 melanoma; experiment: NCI tumour cell line growth inhibition, 48 h

Lookup: Could you please provide reported TGI for COc1ccc2c(c1)[nH]c1c3ccc(OC)cc3oc(=O)c21 ? Thanks!
Found: > 100 µM

Lookup: Look up TGI of O=S(=O)(O)c1cc(N=[N+]([O-])c2ccc(N=Nc3ccccc3)cc2S(=O)(=O)O)ccc1/C=C/c1ccc(N=[N+]([O-])c2ccc(N=Nc3ccccc3)cc2S(=O)(=O)O)cc1S(=O)(=O)O and report it.
Found: > 100 µM

More entries:
Lookup: Specify reported TGI for the compound shown: c1ccc(-c2cc3n4c(-c5ccccc5)nn(-c5ccccc5)c4cnc-3n2)cc1
Found: > 50 µM

====

tested on: SNB-19 CNS; assay: NCI tumour cell line growth inhibition, 48 h
property name: TGI (µM)
Numeric only. Scale: µM

Observe how each entry below is paired with its result.
Lookup: Provide only the value of recorded TGI for Cc1nc(-n2nc(-c3ccccc3)cc2-c2ccccc2)sc1C(=O)/C=C/c1cccc([N+](=O)[O-])c1
Found: 23.5

Lookup: // Input: C=C1CC(O)C2C(=C)C(=O)OC2C2C(C)C(=O)CC12 (configuration not stated) . Output its TGI only.
Found: 38.5

Lookup: Provide measured TGI value, entry: CC(=O)[O][Hg][c]1s[c]([Hg][O]C(C)=O)[c]([Hg][O]C(C)=O)[c]1[Hg][O]C(C)=O
Found: 16.3

Now consider the entry below.
Lookup: State, in one line, measured TGI of O=C(O)c1cccc(S(=O)(=O)NN2C(=O)CSC2c2c(O)ccc3ccccc23)c1 (configuration not stated)
Found: 87
